Ref: paper PMC12155096

Biological target: CYP3A4 (Homo sapiens, UniProt P08684)
Sequence (P08684 whole entry): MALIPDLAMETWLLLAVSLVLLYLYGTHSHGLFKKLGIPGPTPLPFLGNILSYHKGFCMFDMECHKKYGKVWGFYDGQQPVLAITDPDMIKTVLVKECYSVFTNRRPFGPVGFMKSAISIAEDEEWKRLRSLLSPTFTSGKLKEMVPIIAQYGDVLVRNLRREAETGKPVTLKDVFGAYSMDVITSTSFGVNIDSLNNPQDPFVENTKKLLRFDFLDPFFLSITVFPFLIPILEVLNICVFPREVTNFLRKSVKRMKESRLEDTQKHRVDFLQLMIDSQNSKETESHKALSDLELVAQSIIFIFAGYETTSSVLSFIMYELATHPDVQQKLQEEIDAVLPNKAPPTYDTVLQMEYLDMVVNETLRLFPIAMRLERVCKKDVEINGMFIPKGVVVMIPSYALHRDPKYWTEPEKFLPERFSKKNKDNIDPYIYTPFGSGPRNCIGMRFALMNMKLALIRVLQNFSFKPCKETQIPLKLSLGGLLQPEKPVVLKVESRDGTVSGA
Experiment: biochemical
Settings: CYP3A4 IC50
Where a name gives a salt, the structure may show the parent alone.
Mark condition met only when IC50 stays strictly below 20 µM. Values equal to the cut-off are condition not met.

Input: Quick check: IC50 of CCCCN(CCCC)CC(O)c1cc(Cl)cc2c1-c1ccc(Cl)cc1/C2=C/c1ccc(Cl)cc1 (centres unmarked) under 20 µM?
Output: condition met

Input: Quick check: IC50 of CC(C)Nc1ccc(Nc2ccccc2)cc1 under 20 µM?
Output: condition met

Input: Quick check: IC50 of ClC1=C(Cl)C2(Cl)C3C4C=CC(C4)C3C1(Cl)C2(Cl)Cl (centres unmarked) under 20 µM?
Output: condition met

Input: Quick check: IC50 of CCOP(=S)(OCC)SCSP(=S)(OCC)OCC under 20 µM?
Output: condition met

Input: Quick check: IC50 of Cc1cc(-c2ccc(N)c(C)c2)ccc1N under 20 µM?
Output: condition met

Input: Quick check: IC50 of CCCCCCCCCCCCN [Dodecylamine hydrochloride] under 20 µM?
Output: condition not met

Input: Quick check: IC50 of CCOP(=S)(OCC)Oc1cc(-c2ccccc2)on1 under 20 µM?
Output: condition met

Input: Quick check: IC50 of Cc1ccc2cc3c(ccc4ccccc43)c3c2c1CC3 under 20 µM?
Output: condition met

Input: Quick check: IC50 of Cc1cc(C)c(N)cc1C under 20 µM?
Output: condition not met

Input: Quick check: IC50 of Cc1ccc2ccc3cccc4ccc1c2c34 under 20 µM?
Output: condition not met

Input: Quick check: IC50 of CCOC(=O)C(SP(=S)(OC)OC)c1ccccc1 (centres unmarked) [Phenthoate] under 20 µM?
Output: condition met

Input: Quick check: IC50 of Cc1ccccc1NC(=N)Nc1ccccc1C under 20 µM?
Output: condition not met

Input: Quick check: IC50 of c1ccc2sc(SN(C3CCCCC3)C3CCCCC3)nc2c1 under 20 µM?
Output: condition met

Input: Quick check: IC50 of Cc1c2ccccc2c(C)c2c1ccc1ccccc12 under 20 µM?
Output: condition not met

Input: Quick check: IC50 of O=C1C2(Cl)C3(Cl)C4(Cl)C(Cl)(Cl)C5(Cl)C3(Cl)C1(Cl)C5(Cl)C24Cl (centres unmarked) under 20 µM?
Output: condition met

Input: Quick check: IC50 of CCN(CC)C(=O)[C@@H]1C=C2c3cccc4[nH]cc(c34)C[C@H]2N(C)C1 [Lysergide] under 20 µM?
Output: condition not met

---

I'd be grateful if you could share measured AC50 for these entries.
Biological target: human CYP2C9 (Homo sapiens)
Sequence (P11712 whole entry): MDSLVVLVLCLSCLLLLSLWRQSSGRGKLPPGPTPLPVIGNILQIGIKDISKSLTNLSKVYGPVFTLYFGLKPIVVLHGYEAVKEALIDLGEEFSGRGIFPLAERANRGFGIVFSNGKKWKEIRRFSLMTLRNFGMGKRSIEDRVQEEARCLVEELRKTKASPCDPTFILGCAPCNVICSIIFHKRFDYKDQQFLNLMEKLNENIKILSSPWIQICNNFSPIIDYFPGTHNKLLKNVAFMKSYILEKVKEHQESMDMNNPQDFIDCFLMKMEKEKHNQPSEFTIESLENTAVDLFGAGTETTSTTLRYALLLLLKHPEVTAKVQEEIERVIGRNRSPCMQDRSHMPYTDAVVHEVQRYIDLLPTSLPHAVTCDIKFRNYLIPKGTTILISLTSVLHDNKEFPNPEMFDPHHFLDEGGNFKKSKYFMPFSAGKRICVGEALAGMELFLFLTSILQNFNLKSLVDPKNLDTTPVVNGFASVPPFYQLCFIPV
Test: biochemical
Details: CYP2C9 AC50 (half-maximal activity concentration)
Just the number plus its unit, please.

Input: Report value only: AC50, human CYP2C9 (Homo sapiens), C#C[C@]1(OC(C)=O)CC[C@H]2[C@@H]3CCC4=C[C@@H](OC(C)=O)CC[C@@H]4[C@H]3CC[C@@]21C [Ethynodiol diacetate]
Output: 13.3 µM

Input: Report value only: AC50, human CYP2C9 (Homo sapiens), Oc1ccc(Cc2ccc(O)cc2)cc1 [Bis(4-hydroxyphenyl)methane]
Output: 11.8 µM

Input: Report value only: AC50, human CYP2C9 (Homo sapiens), COC(=O)C(C)N(C(=O)c1ccco1)c1c(C)cccc1C (stereo not drawn)
Output: 29.5 µM

Input: Report value only: AC50, human CYP2C9 (Homo sapiens), Oc1nc(Cl)c(Cl)cc1Cl
Output: 45.4 µM

Input: Report value only: AC50, human CYP2C9 (Homo sapiens), Oc1cc(Cl)c(Cl)c(Cl)c1
Output: 11.1 µM

Input: Report value only: AC50, human CYP2C9 (Homo sapiens), COC(=O)CCCCCCCCC(=O)OC [Dimethyl decanedioate]
Output: 50.5 µM

---

Biological target: human CYP2C19 (Homo sapiens)
Sequence (P33261 whole entry): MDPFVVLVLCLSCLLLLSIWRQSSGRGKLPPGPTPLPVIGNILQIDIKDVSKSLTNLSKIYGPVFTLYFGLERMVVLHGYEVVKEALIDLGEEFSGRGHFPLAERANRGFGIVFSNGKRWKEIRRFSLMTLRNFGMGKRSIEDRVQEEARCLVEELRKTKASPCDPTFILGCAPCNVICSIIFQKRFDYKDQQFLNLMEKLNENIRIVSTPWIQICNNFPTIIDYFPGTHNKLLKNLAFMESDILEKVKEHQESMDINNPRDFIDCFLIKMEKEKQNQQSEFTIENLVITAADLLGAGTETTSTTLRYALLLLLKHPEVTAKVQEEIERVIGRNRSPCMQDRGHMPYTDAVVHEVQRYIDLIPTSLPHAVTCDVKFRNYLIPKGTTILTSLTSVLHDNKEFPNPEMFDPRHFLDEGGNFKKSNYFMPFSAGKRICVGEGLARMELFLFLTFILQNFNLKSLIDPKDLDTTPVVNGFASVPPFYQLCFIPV
Experiment: biochemical
Details: CYP2C19 AC50 (half-maximal activity concentration)
I'd be grateful if you could share measured log10(AC50) for these entries.
Log scale reminder: AC50 in µM, then log10 taken.

Input: Please look at this compound and report its log10(AC50): CCOC(=O)c1nc(C(Cl)(Cl)Cl)n(-c2ccc(Cl)cc2Cl)n1 [Fenchlorazole-ethyl]
Output: 0.85

Input: Please look at this compound and report its log10(AC50): O=C(CCCN1CCN(c2ccccn2)CC1)c1ccc(F)cc1 [Azaperone]
Output: 1.51

Input: Please look at this compound and report its log10(AC50): c1ccc(CSCc2ccccc2)cc1 [Benzyl sulfide]
Output: 0.77

Input: Please look at this compound and report its log10(AC50): Brc1ccc(Oc2ccc(Br)cc2)cc1 [4,4'-Dibromodiphenyl ether]
Output: 0.48

Input: Please look at this compound and report its log10(AC50): O=C(NC(=O)c1c(F)cccc1F)Nc1cc(Cl)c(OC(F)(F)C(F)C(F)(F)F)cc1Cl (centres unmarked) [Lufenuron]
Output: 1.04

Input: Please look at this compound and report its log10(AC50): COC(=O)C(C)N(C(=O)c1ccco1)c1c(C)cccc1C (centres unmarked) [Furalaxyl]
Output: 1.13

Input: Please look at this compound and report its log10(AC50): Nc1c(Cl)cc([N+](=O)[O-])cc1Cl [Dicloran]
Output: 1.75

Input: Please look at this compound and report its log10(AC50): O=[N+]([O-])c1cccc2ccccc12 [1-Nitronaphthalene]
Output: 1.78

---

I'd be grateful if you could share measured AC50 for these entries.
Target: human CYP2C19 (Homo sapiens)
Provide only the numeric value, understood in µM.

Input: Please look at this compound and report its AC50: CCN(CC)CCOc1ccc(Cc2ccccc2)cc1.Cl [Tesmilifene hydrochloride]
Output: 0.43

Input: Please look at this compound and report its AC50: CCNS(=O)(=O)c1ccc(C)cc1 [N-Ethyl-4-methylbenzenesulfonamide]
Output: 25.9

Input: Please look at this compound and report its AC50: C/C=C1\C(=O)C[C@H]2[C@@H]3CCC4=CC(=O)CC[C@]4(C)[C@H]3CC[C@]12C
Output: 6.83

Input: Please look at this compound and report its AC50: COC(OC)(C(=O)c1ccccc1)c1ccccc1
Output: 15.9

Input: Please look at this compound and report its AC50: CC(C)c1ccc2sc3ccccc3c(=O)c2c1
Output: 13.1

Input: Please look at this compound and report its AC50: CC(C)(COC(=O)c1ccccc1)COC(=O)c1ccccc1 [Neopentyl glycol dibenzoate]
Output: 20.8

Input: Please look at this compound and report its AC50: O=S1(=O)CC(Cl)(Cl)C(Cl)(Cl)C1
Output: 60.4

Input: Please look at this compound and report its AC50: O=C(C=Cc1ccccc1)OCCCc1ccccc1 [3-Phenylpropyl cinnamate]
Output: 30.1

Input: Please look at this compound and report its AC50: CC1=Nc2ccc3ccccc3c2C1(C)C [1,1,2-Trimethyl-1H-benzo[e]indole]
Output: 10.1

Input: Please look at this compound and report its AC50: Cl.ClCCCN1CCN(c2cccc(Cl)c2)CC1
Output: 8.86

---

Target: human CYP2C9 (Homo sapiens)
Test: biochemical
I'd be grateful if you could share measured AC50 for these entries.
Provide only the numeric value, understood in µM.

Input: Report value only: AC50, human CYP2C9 (Homo sapiens), O=C(O)Cn1c(=O)n(Cc2ccc(Br)cc2F)c(=O)c2ccc(Cl)cc21 [Zenarestat]
Output: 14.4

Input: Report value only: AC50, human CYP2C9 (Homo sapiens), CCN(CC)c1ccc(C=O)cc1 [4-(Diethylamino)benzaldehyde]
Output: 20.1

Input: Report value only: AC50, human CYP2C9 (Homo sapiens), O=C1c2ccccc2C(=O)c2c(Cl)cccc21 [1-Chloroanthraquinone]
Output: 12.6

Input: Report value only: AC50, human CYP2C9 (Homo sapiens), COC(=O)c1cc(Cl)ccc1[N+](=O)[O-] [Methyl 5-chloro-2-nitrobenzoate]
Output: 49.3

---

I'd be grateful if you could share measured IC50 for these entries.
Target: human CYP1A2 (Homo sapiens)
Sequence (P05177 whole entry): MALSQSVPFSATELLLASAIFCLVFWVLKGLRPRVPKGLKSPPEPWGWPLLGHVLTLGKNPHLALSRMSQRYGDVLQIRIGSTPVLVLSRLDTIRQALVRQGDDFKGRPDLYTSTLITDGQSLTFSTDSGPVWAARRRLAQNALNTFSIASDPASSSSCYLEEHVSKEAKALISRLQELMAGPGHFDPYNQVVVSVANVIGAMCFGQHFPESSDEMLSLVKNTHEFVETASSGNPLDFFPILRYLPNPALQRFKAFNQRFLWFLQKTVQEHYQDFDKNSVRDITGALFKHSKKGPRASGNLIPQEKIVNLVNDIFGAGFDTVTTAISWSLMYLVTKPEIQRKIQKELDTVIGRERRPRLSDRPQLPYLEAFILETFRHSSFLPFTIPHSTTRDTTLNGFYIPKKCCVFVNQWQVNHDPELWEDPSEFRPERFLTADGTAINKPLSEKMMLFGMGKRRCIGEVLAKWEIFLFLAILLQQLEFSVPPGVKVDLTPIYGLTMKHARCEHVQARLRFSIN
Assay: biochemical
Details: CYP1A2 IC50 (half-maximal inhibitory concentration)
Counter-ions that a name gives are not always drawn.
Provide only the numeric value, understood in µM.

Input: Report value only: IC50, human CYP1A2 (Homo sapiens), N#C/C(=C1/SC[C@@H](c2ccc(Cl)cc2Cl)S1)n1ccnc1 [luliconazole, reference compound]
Output: 0.33

Input: Report value only: IC50, human CYP1A2 (Homo sapiens), CC(C)C1CCC(Cc2ccc(Cl)cc2)C1(O)Cn1cncn1 (centres unmarked)
Output: 35.4

Input: Report value only: IC50, human CYP1A2 (Homo sapiens), CCC1COC(Cn2cncn2)(c2ccc(Cl)cc2Cl)O1 (centres unmarked)
Output: 31.9

Input: Report value only: IC50, human CYP1A2 (Homo sapiens), CCOP(=S)(OCC)SCCS(=O)(=O)CC
Output: 26

Input: Report value only: IC50, human CYP1A2 (Homo sapiens), COc1ccc(CN(CCN(C)C)c2ccccn2)cc1 [Pyrilamine maleate]
Output: 62.7

Input: Report value only: IC50, human CYP1A2 (Homo sapiens), OC(Cc1ccccc1Cl)(Cn1nc[nH]c1=S)C1(Cl)CC1 (centres unmarked)
Output: 41.9

Input: Report value only: IC50, human CYP1A2 (Homo sapiens), Fc1ccc([C@@H]2CCNC[C@H]2COc2ccc3c(c2)OCO3)cc1 [paroxetine, reference compound]
Output: 15.2

Input: Report value only: IC50, human CYP1A2 (Homo sapiens), CCCCC(O)(Cn1cncn1)c1ccc(Cl)cc1Cl (centres unmarked)
Output: 37

Input: Report value only: IC50, human CYP1A2 (Homo sapiens), CCOP(=O)(OCC)OC(=CCl)c1ccc(Cl)cc1Cl
Output: 6.58

Input: Report value only: IC50, human CYP1A2 (Homo sapiens), Brc1ccc(Oc2ccc(Br)cc2Br)c(Br)c1
Output: 16.8

Input: Report value only: IC50, human CYP1A2 (Homo sapiens), COCCOC(=O)C1=C(C)NC(C)=C(C(=O)OC/C=C/c2ccccc2)C1c1cccc([N+](=O)[O-])c1 (centres unmarked)
Output: 15.6

Input: Report value only: IC50, human CYP1A2 (Homo sapiens), CC(CCc1ccccc1)NC(C)C(O)c1ccc(O)cc1 (centres unmarked)
Output: 13.6

Input: Report value only: IC50, human CYP1A2 (Homo sapiens), C=CCOC(=O)C(C)(C)OC(=O)c1cc(-n2c(=O)cc(C(F)(F)F)n(C)c2=O)ccc1Cl
Output: 35.1

Input: Report value only: IC50, human CYP1A2 (Homo sapiens), CN(C)c1ccc(Cc2ccc(N(C)C)cc2)cc1
Output: 4.55
